- Target desc: Platelet-derived growth factor receptor alpha (Homo sapiens, UniProt P16234)
- Sequence (P16234 whole entry): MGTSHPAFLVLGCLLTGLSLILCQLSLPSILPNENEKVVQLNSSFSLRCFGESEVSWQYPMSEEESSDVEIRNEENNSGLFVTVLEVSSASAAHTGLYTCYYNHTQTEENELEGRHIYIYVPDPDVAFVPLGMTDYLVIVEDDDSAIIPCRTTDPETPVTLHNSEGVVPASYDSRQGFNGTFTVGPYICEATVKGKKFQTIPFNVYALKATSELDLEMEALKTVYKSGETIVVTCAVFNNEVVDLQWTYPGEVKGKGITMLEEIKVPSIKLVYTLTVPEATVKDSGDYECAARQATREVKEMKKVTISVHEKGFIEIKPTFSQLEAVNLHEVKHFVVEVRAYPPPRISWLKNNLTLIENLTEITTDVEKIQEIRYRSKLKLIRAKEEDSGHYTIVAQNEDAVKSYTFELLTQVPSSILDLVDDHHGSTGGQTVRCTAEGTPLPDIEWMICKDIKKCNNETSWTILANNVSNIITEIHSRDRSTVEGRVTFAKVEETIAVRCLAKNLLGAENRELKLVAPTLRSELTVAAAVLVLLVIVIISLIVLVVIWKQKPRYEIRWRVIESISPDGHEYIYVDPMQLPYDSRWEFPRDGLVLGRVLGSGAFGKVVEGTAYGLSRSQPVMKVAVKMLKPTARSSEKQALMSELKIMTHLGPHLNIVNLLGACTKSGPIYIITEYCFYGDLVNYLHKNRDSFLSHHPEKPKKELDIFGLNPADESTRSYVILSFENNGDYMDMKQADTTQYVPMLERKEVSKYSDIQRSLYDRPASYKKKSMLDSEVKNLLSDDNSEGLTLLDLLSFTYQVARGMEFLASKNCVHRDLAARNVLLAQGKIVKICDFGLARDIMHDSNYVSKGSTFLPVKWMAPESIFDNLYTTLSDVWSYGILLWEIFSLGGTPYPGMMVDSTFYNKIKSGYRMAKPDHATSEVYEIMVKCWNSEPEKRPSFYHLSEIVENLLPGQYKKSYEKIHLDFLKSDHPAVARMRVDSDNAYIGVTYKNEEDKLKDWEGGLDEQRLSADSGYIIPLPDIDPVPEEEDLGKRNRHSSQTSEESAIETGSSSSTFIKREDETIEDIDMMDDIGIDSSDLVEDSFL
Readout kind: IC50

# Line notation, Target desc, Readout kind, Readout value
records = [
    ("Cc1n[nH]c2cc(Nc3nc(NC4CC4)c4occc4n3)ccc12", "Platelet-derived growth factor receptor alpha (Homo sapiens, UniProt P16234)", "IC50", "> 10 µM"),
    ("FC(F)(F)CNc1nc(Nc2ccc3cn[nH]c3c2)nc2ccoc12", "Platelet-derived growth factor receptor alpha (Homo sapiens, UniProt P16234)", "IC50", "> 10 µM"),
    ("CC1(C)OCC(=O)Nc2cc(Nc3nc(NCC(F)(F)F)c4occc4n3)ccc21", "Platelet-derived growth factor receptor alpha (Homo sapiens, UniProt P16234)", "IC50", "5.59 µM"),
]
